Biological target: Metabotropic glutamate receptor 2 (Homo sapiens, UniProt Q14416)
Sequence (Q14416 whole entry): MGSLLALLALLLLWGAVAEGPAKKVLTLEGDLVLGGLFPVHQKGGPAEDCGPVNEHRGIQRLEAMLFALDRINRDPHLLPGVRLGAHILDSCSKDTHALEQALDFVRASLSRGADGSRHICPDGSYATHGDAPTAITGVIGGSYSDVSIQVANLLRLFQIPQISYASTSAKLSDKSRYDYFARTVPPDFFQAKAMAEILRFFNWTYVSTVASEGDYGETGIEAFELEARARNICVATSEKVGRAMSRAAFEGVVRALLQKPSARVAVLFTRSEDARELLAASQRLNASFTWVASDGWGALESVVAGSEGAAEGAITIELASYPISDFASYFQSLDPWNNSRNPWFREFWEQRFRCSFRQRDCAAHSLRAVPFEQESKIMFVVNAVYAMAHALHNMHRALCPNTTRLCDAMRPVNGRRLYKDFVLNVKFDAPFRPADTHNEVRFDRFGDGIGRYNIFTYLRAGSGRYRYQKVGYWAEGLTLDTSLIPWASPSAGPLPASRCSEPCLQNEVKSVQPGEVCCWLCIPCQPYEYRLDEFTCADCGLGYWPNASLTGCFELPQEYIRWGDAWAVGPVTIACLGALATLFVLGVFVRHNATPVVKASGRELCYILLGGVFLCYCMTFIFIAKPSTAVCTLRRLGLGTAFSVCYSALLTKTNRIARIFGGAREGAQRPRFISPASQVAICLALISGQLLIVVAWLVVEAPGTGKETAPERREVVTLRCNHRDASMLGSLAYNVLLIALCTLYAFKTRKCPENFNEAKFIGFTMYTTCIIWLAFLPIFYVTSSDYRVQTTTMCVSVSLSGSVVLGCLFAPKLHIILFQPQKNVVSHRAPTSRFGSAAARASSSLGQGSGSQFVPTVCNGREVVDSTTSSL
Assay: Positive allosteric modulator activity at human mGlu2R expressed in CHO cells incubated for 30 mins by [35S]GTPgammaS binding assay
EXPERIMENTAL_READOUT: EC50 (nM)

Clc1c(N2CCN(c3ccccc3)CC2)ccn2c(CC3CC3)nnc12	944
Fc1ccc(C2CCN(c3ccn4c(CC5CC5)nnc4c3C(F)(F)F)CC2)c(F)c1	10
CCc1nnc2c(C(F)(F)F)c(N3CCC(c4ccccc4)CC3)ccn12	116
N#Cc1c(N2CCC(c3ccccc3)CC2)ccn2c(CN3CCCC3)nnc12	1120
CCc1nnc2c(Cl)c(N3CCC(c4ccccc4)CC3)ccn12	386
FC(F)(F)c1c(N2Cc3ccccc3C2)ccn2c(CC3CC3)nnc12	400

[1] COCc1nnc2c(C#N)c(N3CCC(c4ccccc4)CC3)ccn12
[2] CCCc1nnc2c(C#N)c(N3CCC(c4ccccc4)CC3)ccn12
[3] N#Cc1c(N2CCC(c3ccccc3)CC2)ccn2c(CC(F)(F)F)cnc12
Arrange the 3 compounds from largest to smallest EC50. Dear reader, please state the labels in the requested order. 1, 2, 3

----------
Test: Cmax in Sprague-Dawley rat at […], iv or 10 mg/kg, po
Format: ADME, organism-based
Details: in vivo
EXPERIMENTAL_READOUT: Cmax (ng/mL)

A selection of reference data follows.
FC(F)(F)C1(c2ccccc2)CCN(c2ccn3c(CC4CC4)nnc3c2Cl)CC1	289
FC(F)(F)c1c(N2CCC(c3ccccc3)CC2)ccn2c(CC3CC3)nnc12	482

[I] FC(F)(F)Cc1nnc2c(Cl)c(N3CCC(F)(c4ccccc4)CC3)ccn12
[II] CCc1nnc2c(C(F)(F)F)c(N3CCC(c4ccccc4)CC3)ccn12
Please choose the item with the lower Cmax value from this pair: I and II Bench note: the answer is the label of the chosen record. II

----------
Assay: Plasma concentration in Swiss mouse at 10 mg/kg, sc administered as single dose measured 1 hr post dose
Type: ADME, organism-based
Parameters: dose 10 mg/kg, route subcutaneous
EXPERIMENTAL_READOUT: concentration at 1 h (ng/mL)

FC(F)(F)c1c(N2CCC(c3ccccc3)CC2)ccn2c(CC3CC3)nnc12	671

[A] Clc1c(N2CCC(c3ccccc3)CC2)ccn2c(CC3CC3)nnc12
[B] CCc1nnc2c(C#N)c(N3CCC(c4ccccc4)CC3)ccn12
[C] FC(F)(F)Cc1nnc2c(Cl)c(N3CCC(c4ccccc4)CC3)ccn12
Arrange the 3 compounds from largest to smallest concentration at 1 h. Dear reader, please state the labels in the requested order. A, C, B
(A: 2660 ng/mL, C: 1160 ng/mL, B: 672 ng/mL)

----------
Assay: Oral bioavailability in Sprague-Dawley rat at 10 mg/kg
Format: ADME, organism-based
Conditions: in vivo
EXPERIMENTAL_READOUT: bioavailability (%)

A selection of reference data follows.
CCc1nnc2c(C(F)(F)F)c(N3CCC(c4ccccc4)CC3)ccn12	35
FC(F)(F)C1(c2ccccc2)CCN(c2ccn3c(CC4CC4)nnc3c2Cl)CC1	53

[A] FC(F)(F)Cc1nnc2c(Cl)c(N3CCC(F)(c4ccccc4)CC3)ccn12
[B] FC(F)(F)c1c(N2CCC(c3ccccc3)CC2)ccn2c(CC3CC3)nnc12
# argmax over bioavailability for candidates A and B Bench note: the answer is the label of the chosen record. A

Attribution: ChEMBL document CHEMBL2176880
